# PROCEDURE_SUMMARY: in vivo
# RUN_PARAMETERS: CDIGS, rat, in vivo
MEASUREMENT_KIND: bioavailability (%)
Give a bare numeral; the unit % is implied.

Prompt line: What measured bioavailability goes with CN(C)C/C=C/C(=O)N1CC[C@@H](n2nc(-c3ccc(Oc4ccccc4)cc3)c3c(N)ncnc32)C1 [Compound 1] ?
Response line: 24.7

====

pIC50: −log10 of the molar value.
MEASUREMENT_KIND: pIC50

Prompt line: Given the entry CN(C)C/C=C/C(=O)N1CC[C@@H](n2nc(-c3ccc(Oc4ccccc4)cc3)c3c(N)ncnc32)C1 [Compound 1] , what pIC50 was observed with UniProt Q06187?
Response line: 8.70 to 9.00

====

# Test system: CD20+ B cells
# PROCEDURE_SUMMARY: human B cell activation following BCR stimulation by anti-IgM (CD69)
# Type: cell-based
# RUN_PARAMETERS: read-out: EC50 of inhibition of human B cell activation
MEASUREMENT_KIND: pEC50
Remember, pEC50 is on a log scale: it is -log10 of the molar concentration.

Prompt line: What measured pEC50 goes with CN(C)C/C=C/C(=O)N1CC[C@@H](n2nc(-c3ccc(Oc4ccccc4)cc3)c3c(N)ncnc32)C1 ?
Response line: 8.70

Prompt line: What measured pEC50 goes with C=CC(=O)N1CCC[C@@H](n2nc(-c3ccc(Oc4ccccc4)cc3)c3c(N)ncnc32)C1 [Compound 2, reference compound] ?
Response line: 8.70

====

# PROCEDURE_SUMMARY: in vivo
# RUN_PARAMETERS: CDIGS, rat, plasma, oral
MEASUREMENT_KIND: bioavailability (%)
Give a bare numeral; the unit % is implied.

Prompt line: What measured bioavailability goes with C=CC(=O)N1CCC[C@@H](n2nc(-c3ccc(Oc4ccccc4)cc3)c3c(N)ncnc32)C1 [Compound 2, reference compound] ?
Response line: 22.8

====

# PROCEDURE_SUMMARY: in vitro
# RUN_PARAMETERS: human, liver microsomes
MEASUREMENT_KIND: half-life
Please report the result as a number followed by the unit.

Prompt line: What measured half-life goes with CN(C)C/C=C/C(=O)N1CC[C@@H](n2nc(-c3ccc(Oc4ccccc4)cc3)c3c(N)ncnc32)C1 [Compound 1] ?
Response line: 19.2 min
